- measured.target: JAK3: Recombinant human kinase domain (Homo sapiens, UniProt P52333)
- Construct: JAK3: Recombinant human kinase domain from Millipore (Cat #14-629) or prepared
- Sequence (P52333 822-1111 limits assumed): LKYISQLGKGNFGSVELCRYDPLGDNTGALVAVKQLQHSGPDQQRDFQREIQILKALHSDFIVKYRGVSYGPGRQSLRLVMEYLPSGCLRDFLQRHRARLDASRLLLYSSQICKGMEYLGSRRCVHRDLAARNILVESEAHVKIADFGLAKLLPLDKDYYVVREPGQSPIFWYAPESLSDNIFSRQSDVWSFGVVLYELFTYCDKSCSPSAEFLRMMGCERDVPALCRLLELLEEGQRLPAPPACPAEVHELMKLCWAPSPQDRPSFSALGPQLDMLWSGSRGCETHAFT
- experimental.protocol: Determination of IC50 of Janus Kinase (JAK) inhibition, radioactive end-point 33P-ATP assay, JAK3
- experimental.setup: ATP 1.5 uM, peptide 50 uM, 20 minutes, read-out: JAK3-INHIB-DR/v1~NO ADDITIVE~Enzyme_Conc = 100
measure: IC50 (nM)

{"compound": "CC(C)NC(=O)c1c[nH]c2ncc(-c3nn(C)c4cc(Cl)ccc34)nc12 [Example I-108]", "units": "nM", "value.observed": 7.05}
{"compound": "CC(NC(=O)c1c[nH]c2ncc(-c3nn(C)c4cc(F)ccc34)nc12)C(O)C1CCOCC1 (single isomer, unassigned) [Example I-204]", "units": "nM", "value.observed": 217}
{"compound": "C[C@@H](NC(=O)c1c[nH]c2ncc(-c3nn(C)c4cc(Cl)ccc34)nc12)C(=O)N1CC2(COC2)C1 [Example I-27]", "units": "nM", "value.observed": 20.5}
{"compound": "Cn1nc(-c2cnc3[nH]cc(C(=O)N[C@@H](C(=O)N4CCC(C#N)CC4)C4CC4)c3n2)c2c1CCCC2 [Example I-10]", "units": "nM", "value.observed": 1.51}
{"compound": "C[C@H](NC(=O)c1c[nH]c2ncc(-c3nn(C)c4ccc(Cl)cc34)nc12)C(C)(C)C [Example I-11]", "units": "nM", "value.observed": 1.77}

(P) CC(NC(=O)c1c[nH]c2ncc(-c3nn(C)c4cc(F)ccc34)nc12)C(O)C1CCOCC1 (single isomer, unassigned) [Example I-203]
(Q) COC[C@H](C)NC(=O)c1c[nH]c2ncc(-c3nn(C)c4cc(Cl)ccc34)nc12 [Example I-165]
(R) Cn1nc(-c2cnc3[nH]cc(C(=O)NC(C)(C)C)c3n2)c2ccc(Cl)cc21 [Example I-305]
(S) Cn1nc(-c2cnc3[nH]cc(C(=O)N[C@@H](C(=O)N4CCC(C#N)CC4)C(C)(C)C)c3n2)c2ccc(Cl)cc21 [Example I-19]
(T) CC(C)NC(=O)c1c[nH]c2ncc(-c3nn(Cc4ccon4)c4cc(Cl)ccc34)nc12 [Example I-310]
Let's sort these by IC50, smallest first. Go ahead? // list labels; follow requested order Q, S, T, P, R
(Q: 1.14 nM, S: 2.12 nM, T: 31.4 nM, P: 263 nM, R: 444 nM)
